- System: IGROV1 ovarian
- PROCEDURE DETAILS: NCI-60 one-dose screen, 48 h (100 = growth as untreated, 0 = no growth, -100 = all killed)
- TEST CONTEXT: 10 µM unless noted
- Method: Growth inhibition of the IGROV1 human tumor cell line is measured as a screen for anti-cancer activity. Cells are grown in 96 well plates and exposed to the test compound for 48 hours. Compounds are tested at a single concentration, which is 10^-5 M for most compounds. The reported endpoint is percent growth (GI% or GIPRCNT), where numbers from 0 - 100% represent growth inhibition, and numbers from -100% - 0 represent cell death. For example, a value of 40 represents 60% growth inhibition. […]
This is part of a sample that, as a whole, favours compounds with a hit. Of some 83,000 tested, about 20% had one in any assay.
MEASUREMENT KIND: growth (%)

MOLECULE | RECORDED MEASUREMENT
O=C(/C=C/c1ccc(Cl)cc1)c1cccc(Nc2nc(Nc3ccccc3)nc(Nc3ccccc3)n2)c1 | 13.5
O=C(NNC(=O)c1ccc(-n2cc(-c3ccccc3)nn2)cc1)Nc1ccccc1 | 103
CCN(CC)c1nc(SCc2ccccc2Cl)ncc1C | 109
O=C(CSc1nc2sc3c(c2c(=O)n1-c1ccccc1)CCCCC3)N/N=C/c1ccc(F)cc1 | 62.1
O=C1CNC(c2ccccc2)C(c2ccccc2)N1 (stereo not given) | 93
COc1ccc2c(O)c(/C=C3\N=Nc4ncccc43)oc2c1C[C@H]1CCNC[C@H]1F | 2.29
COP(=O)(OC)C(C)(C)CC(=O)CC(C#N)(C#N)C(C#N)C#N | 110
O=C1c2cccnc2C(=O)c2c1c(C(=O)NCCn1ccnc1)c1ccccn21 | 26.3
O=c1c2cc(-c3ccccc3)sc2nc2sc(-c3ccccc3)nn12 | 109
O=C(Nc1ccc(NC(=O)c2cc(=O)[nH]c3ccccc23)cc1)Nc1cccc(C(F)(F)F)c1 | 64.9
CC1(c2ccccc2O)NN=C(/N=C/c2cccc([N+](=O)[O-])c2)N1C(Cc1c[nH]c2ccccc12)C(=O)O (stereo not given) | 62
CCOC(=O)c1cc(C(=O)c2cc(OC)c(OC)c(OC)c2)n2ccc(-c3ccncc3)cc12 | 111
Oc1c(Cl)cc(Cl)cc1/C=N/Nc1nnc(N/N=C/c2cc(Cl)cc(Cl)c2O)c2ccccc12 | 13.1
CC1(C)CCC(S(=O)(=O)c2ccc3c(c2)/C(=N\O)c2cc(S(=O)(=O)N4CCC(O)(c5cccc(C(F)(F)F)c5)CC4)ccc2-3)CC1 | -32.1
C#Cc1ccc(NC(=O)c2ccc(/C=C/C(=O)c3nccn3C)cc2)cc1 | -37.3
CC/C(=C(/c1ccc(Cl)cc1)c1ccc(OCCN2CCCC2)cc1)c1ccc(OC)cc1 | 81.8
O=C1Nc2ccccc2[C@]12CC(c1ccccc1)=NN2 | 33.1
COc1cc(-c2cc(-c3ccc(N(C)C)cc3)nc(N3CCC(O)CC3)c2C#N)cc(OC)c1OC | 7.25
CC(=O)OC[C@]12CCC(C)(C)C[C@H]1[C@@]1(O)[C@H](O)C[C@@H]3[C@@]4(C)CCCNC(C)(C)[C@@H]4CC[C@@]3(C)[C@]1(C)CC2 | 107
C=C1CC[C@@H]2[C@](C)(COC(C)=O)[C@H](OC(C)=O)CC[C@@]2(C)[C@@H]1CC(Sc1ccccc1)C1=CCOC1=O (stereo not given in full) | 25.2
O=S(=O)(Nc1cc(Br)c(O)c2ccccc12)c1ccc(F)cc1 | 81.4
COc1cc(-c2csc(NC(=O)c3cc(-n4cnc(C)c4)cc(C(F)(F)F)c3)n2)cc(OC)c1OC | 52
CN(CCn1sc(=O)n(Cc2ccccc2)c1=O)Cc1ccc2c(Cl)cc(Cl)c(O)c2n1 | 37.3
COc1ccc(-c2nnc3n(C)c(=O)c4ccccc4n23)cc1N | 51.9
CCCCN1C(=O)/C(=c2\sc3n(c2=O)C2C(NN=3)N(CC)C(=O)N2CC)c2ccccc21 (stereo not given) | 2.64
NC(=O)CCC(C(=O)O)N1C(=O)c2ccc(O)cc2C1=O (stereo not given) | 105
C=C1C(=O)O[C@H]2[C@H]1CC/C(COC(=O)CCSCCC(=O)OC/C1=C/CC[C@@]3(C)O[C@H]3[C@H]3OC(=O)C(=C)[C@@H]3CC1)=C\CC[C@@]1(C)O[C@@H]21 | -17.3
O=C(Nc1cccnc1Nc1ccc(F)cc1)c1cn(Cc2cccc(Oc3ccccc3)c2)nn1 | 91.2
CS(=O)(=O)Nc1cc(-c2ccc3ncnc(Nc4ccc5c(cnn5Cc5ccccn5)c4)c3c2)cnc1Cl | 38.1
C=C1C(=O)O[C@H]2[C@H]1CC/C(COC(=O)CSCCSCC(=O)OC/C1=C/CC[C@@]3(C)O[C@H]3[C@H]3OC(=O)C(=C)[C@@H]3CC1)=C\CC[C@@]1(C)O[C@@H]21 | -9.6

----------
- System: ACHN renal
- PROCEDURE DETAILS: NCI-60 one-dose screen, 48 h (100 = growth as untreated, 0 = no growth, -100 = all killed)
- TEST CONTEXT: 10 µM unless noted
About 83,000 compounds went through this panel and 20% of them were active in at least one assay; those are over-represented in the sample as a whole.
Quick rule for you: growth at 40% or higher means Yes, lower means No.

COMPOUND | ASSIGNED CATEGORY
COc1ccc(C2c3sc4c(F)cccc4c3Oc3nc[nH]c(=O)c32)cc1 (configuration not stated) | Yes
COc1ccc(-c2nc3c(c(-c4ccccc4)nn3-c3ccccc3)c(-c3ccc(N4CCOCC4)cc3)c2C#N)cc1 | Yes
Oc1c(Cl)cc(Cl)c2ccc(Cn3cc(-c4ccc(C(F)(F)F)cc4)nn3)nc12 | No
O=C1c2cccc(NCCN=Cc3cc(O)ccc3O)c2C(=O)c2c(NCCN=Cc3cc(O)ccc3O)cccc21 | No
COc1cc2oc(-c3cccc(NC(=O)c4cccc(Br)c4)c3)cc(=O)c2c(OC)c1OC | Yes
CCOC(=O)c1cc(C(=O)c2cc(OC)c(OC)c(OC)c2)n2ccc(-c3ccncc3)cc12 | Yes
CN1CCN(C(=O)c2ccc(NC(=O)Nc3ccc(-c4nc(N5CCOCC5)c5cccn5n4)cc3)cc2)CC1 | No

----------
Quick reference for growth among some compounds
- Tested on: 786-0 renal
- PROCEDURE DETAILS: NCI-60 one-dose screen, 48 h (100 = growth as untreated, 0 = no growth, -100 = all killed)
- TEST CONTEXT: 10 µM unless noted
This is part of a sample that, as a whole, favours compounds with a hit. Of some 83,000 tested, about 20% had one in any assay.

STRUCTURE NOTATION | UNIT TEXT | growth
CC/C(=C(/c1ccc(Cl)cc1)c1ccc(OCCN2CCCC2)cc1)c1ccc(OC)cc1 | % | 71.9
COc1ccc(-c2cc(-c3ccc(Cl)cc3)c(C#N)c(=O)n2CCCCC(=O)Nc2ccccc2N)cc1 | % | 68.8
O=C(CCC(=O)N/N=C/c1ccccc1O)N/N=C/c1ccccc1O | % | 69.7

----------
Quick reference for growth among some compounds
- Test system: MOLT-4 leukemia
- PROCEDURE DETAILS: NCI-60 one-dose screen, 48 h (100 = growth as untreated, 0 = no growth, -100 = all killed)
- TEST CONTEXT: 10 µM unless noted
About 83,000 compounds went through this panel and 20% of them were active in at least one assay; those are over-represented in the sample as a whole.

COMPOUND | growth / %
C#CCOc1cccc(Nc2ncnc3c(NC(=O)C=C)cccc23)c1 | 4.11
O=C(CCC(=O)N/N=C/c1ccccc1O)N/N=C/c1ccccc1O | 18.1
COc1ccc(-c2nc3c(c(-c4ccccc4)nn3-c3ccccc3)c(-c3ccc(N4CCOCC4)cc3)c2C#N)cc1 | 94.4
O=C(Nc1ncc(Cc2ccc(Cl)c(C(F)(F)F)c2)s1)c1ccc2nnsc2c1 | 30.9
O=C(Nc1cc(Cl)ccc1O)c1ccc(Nc2ccnc(C(F)(F)F)c2)cc1 | 19.2
C=C1CC[C@@H]2[C@](C)(COC(C)=O)[C@H](OC(C)=O)CC[C@@]2(C)[C@@H]1CC(Sc1ccccc1)C1=CCOC1=O (some centres undefined) | -3.93
Cc1ccc(S(=O)(=O)N2CCCC2CO)cc1 (centres undefined) | 98.8
c1ccc(C2=NN[C@H](c3cn(-c4ccccc4)nc3-c3ccccc3)C2)cc1 | 80.5
Cc1cccc(N2CCN(CC(O)COc3ccc(Cl)cc3)CC2)c1 (centres undefined) | 77.1

----------
- Test system: NCI-H522 lung
- PROCEDURE DETAILS: NCI-60 one-dose screen, 48 h
- TEST CONTEXT: 10 µM unless noted
About 83,000 compounds went through this panel and 20% of them were active in at least one assay; those are over-represented in the sample as a whole. The source made the active and inactive calls. How the source made its calls: active means growth percent below 10; inactive means the rest.
Outcomes: active, inactive

COMPOUND | ASSIGNED CATEGORY
Cc1nc(N2CCOCC2)sc1S(N)(=O)=O | inactive
O=c1c2cc(-c3ccccc3)sc2nc2sc(-c3ccccc3)nn12 | inactive
COCCn1cc(-c2nc(-c3cc4cccnc4n3CCOC)cs2)c2cc(OC)ccc21 | inactive
O=[N+]([O-])/C(=C/C=C/c1ccccc1)c1ccccc1 | inactive
O=C1C(Cl)=C(Oc2ccccc2)C(=O)c2ccccc21 | active
CCOC(=O)c1[nH]c(=O)c2c(C)nc(-c3ccccc3)cc2c1O | inactive
COc1ccc(/C=N/NC(=O)CCN2c3ccccc3Sc3ccccc32)cc1 | inactive
CCN1C(=O)N(CC)C2C1NN=c1s/c(=C\c3ccc(Cl)cc3Cl)c(=O)n12 (configuration not stated) | active
CCN(CC)c1ccc(/C=C/C(=O)c2ccc(Nc3nc(Nc4ccccc4)nc(Nc4ccccc4)n3)cc2)cc1 | inactive
O=C1Nc2ccccc2/C1=C\c1nc(-c2ccccc2F)n2ccccc12 | active
C=CCn1c(SCC(=O)NCc2cc(C)c(O)c(C)c2)nc2ccc(Cl)cc2c1=O | inactive
O=C1c2cccnc2C(=O)c2c1c(C(=O)NCCCN1CCCCC1)c1ccccn21 | active
CCn1c(=S)[nH]c2c(=O)n(C)c(=O)n(C)c21 | inactive
O=C(c1ccc(-c2nc(CSc3nc4ccccc4s3)no2)cc1)N1CCSCC1 | inactive
O=CC1(C2(C=O)c3ccccc3-c3ccccc32)c2ccccc2-c2ccccc21 | active
CC12CCC3c4ccccc4CCC3(CO1)C2 (configuration not stated) | inactive
CCS/C(Nc1ccccc1)=C(\C#N)C(=O)N/N=C/c1ccc(Cl)cc1Cl | active

Where do these numbers come from? They come from PubChem BioAssay (NCI).
